pIC50 for assorted compounds
biological target: human recombinant HDAC1 (Homo sapiens, UniProt Q13547); test: HDAC1 enzyme activity inhibition assay (in vitro, fluorimetric); settings: human recombinant HDAC1, fluorimetric kit, 30° C. 60 minutes
Sequence (Q13547 whole entry): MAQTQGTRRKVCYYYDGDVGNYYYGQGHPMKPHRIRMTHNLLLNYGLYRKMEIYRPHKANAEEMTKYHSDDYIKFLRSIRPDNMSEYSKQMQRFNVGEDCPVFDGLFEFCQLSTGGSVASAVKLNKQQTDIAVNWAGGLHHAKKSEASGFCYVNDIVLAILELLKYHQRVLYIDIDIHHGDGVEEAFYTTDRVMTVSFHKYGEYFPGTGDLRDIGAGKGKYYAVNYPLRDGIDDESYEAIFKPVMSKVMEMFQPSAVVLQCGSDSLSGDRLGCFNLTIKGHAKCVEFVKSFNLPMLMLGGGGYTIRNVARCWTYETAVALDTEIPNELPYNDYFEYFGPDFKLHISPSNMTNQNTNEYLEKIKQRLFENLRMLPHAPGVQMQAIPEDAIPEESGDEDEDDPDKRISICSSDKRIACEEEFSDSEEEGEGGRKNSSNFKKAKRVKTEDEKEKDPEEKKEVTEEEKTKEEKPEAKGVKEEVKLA
The value called pIC50 is obtained by taking minus log10 of the concentration in mol/L.

> print(dat)
                                   compound                           subject.of.test  parameter  recorded.measurement
1  C[C@@H]1CN(Cc2cccc(CN3CCCC3)c2)C[C@H](C)N1Cc1ccc(/C=C/C(=O)NO)cc1 [Compound 475]  human recombinant HDAC1 (Homo sapiens, UniProt Q13547)      pIC50                  6.10

The measured pIC50 associated with C[C@@H]1CN(C(=O)Nc2ccccc2)C[C@H](C)N1Cc1ccc(C(=O)NO)cc1 [Compound 162] reads 6.40

The measured pIC50 associated with C[C@@H]1CN(Cc2ccc(C(=O)NO)cc2)C[C@H](C)N1C(=O)c1ccccc1-c1cccnc1 [Compound 286] reads 4.88

The measured pIC50 associated with C[C@@H]1CN(Cc2ccc(C(=O)NO)cc2)C[C@H](C)N1Cc1ccc(-c2ccoc2)cc1 [Compound 309] reads 5.80

The measured pIC50 associated with C[C@@H]1CN(C(=O)c2ccccc2-c2ccco2)C[C@H](C)N1Cc1ccc(C(=O)NO)cc1 [Compound 276] reads 4.91

The measured pIC50 associated with C[C@@H]1CN(C(=O)c2cccc(C3=CCOCC3)c2)C[C@H](C)N1Cc1ccc(C(=O)NO)cc1 [Compound 259] reads 5.60

The measured pIC50 associated with C[C@@H]1CN(C(=O)Cc2cccc(Cl)c2)C[C@H](C)N1Cc1ccc(C(=O)NO)cc1 [Compound 233] reads 4.77

The measured pIC50 associated with C[C@@H]1CN(C(=O)c2cccc(-c3ccncc3)c2)C[C@H](C)N1Cc1ccc(C(=O)NO)cc1 [Compound 260] reads 5.77

The measured pIC50 associated with C[C@@H]1CN(Cc2ccc(C(=O)NO)cc2)C[C@H](C)N1C(=O)c1ccc(CN2CCN(C)CC2)cc1 [Compound 462] reads 5.49

The measured pIC50 associated with C[C@@H]1CN(Cc2ccc(C(=O)NO)cc2)C[C@H](C)N1C(=O)Cc1cccc(C(F)(F)F)c1 [Compound 223] reads 6.05

The measured pIC50 associated with C[C@@H]1CN(CC(C)(C)F)C[C@H](C)N1Cc1ccc(C(=O)NO)cc1 [Compound 193] reads 4.79

* * *

molecular target: human recombinant HDAC1 (Homo sapiens, UniProt Q13547); assay: HDAC1 enzyme activity inhibition assay (in vitro, fluorimetric); settings: human recombinant HDAC1, fluorimetric kit, 30° C. 60 minutes
parameter: IC50 (µM)
Enter your answer as a number in µM; do not include the unit.

For orientation, consider the following solved cases.
> print(dat)
                                smiles.text                           subject.of.test  parameter  recorded.measurement
1  C[C@@H]1CN(S(=O)(=O)c2ccc(Cl)cc2)C[C@H](C)N1Cc1ccc(C(=O)NO)cc1  human recombinant HDAC1 (Homo sapiens, UniProt Q13547)       IC50                   5.1
2  C[C@@H]1CN(Cc2ccc(C(=O)NO)cc2)C[C@H](C)N1C(=O)c1cccc(-c2cccnc2)c1  human recombinant HDAC1 (Homo sapiens, UniProt Q13547)       IC50                   3.4
3  C[C@@H]1CN(Cc2ccc(C(=O)NO)cc2)C[C@H](C)N1Cc1cncnc1  human recombinant HDAC1 (Homo sapiens, UniProt Q13547)       IC50                    21
4  C[C@@H]1CN(Cc2ccc(C(=O)NO)cc2)C[C@H](C)N1Cc1cccc(C(=O)N2CCOCC2)c1  human recombinant HDAC1 (Homo sapiens, UniProt Q13547)       IC50                   3.8

Tested on human recombinant HDAC1 (Homo sapiens, UniProt Q13547): C[C@@H]1CN(C(=O)c2ccco2)C[C@H](C)N1Cc1ccc(C(=O)NO)cc1 . Observed IC50: 3.2

Tested on human recombinant HDAC1 (Homo sapiens, UniProt Q13547): C[C@@H]1CN(c2ccc(F)cc2)C[C@H](C)N1Cc1ccc(C(=O)NO)cc1 . Observed IC50: 8.2

Tested on human recombinant HDAC1 (Homo sapiens, UniProt Q13547): C[C@@H]1CN(Cc2ccc(C(=O)NO)cc2)C[C@H](C)N1C(=O)c1cccc(-c2ccncc2)c1 . Observed IC50: 3.6

* * *

target: human recombinant HDAC6 (Homo sapiens, UniProt Q9UBN7); construct: purchased Calbiochem 382180; test: HDAC6 enzyme activity inhibition assay (in vitro, fluorimetric); assay type: biochemical; conditions: HDAC6 selectivity over HDAC1
Classification field: enter T for HDAC6 selectivity (fold) values not below 50 fold, F for values below it.

Take a look at these entries with their results.
> print(dat)
                                smiles.text                           subject.of.test  qualitative.label
1  C[C@@H]1CN(Cc2ccc(C(=O)NO)cc2)C[C@H](C)N1C(=O)c1ccco1  human recombinant HDAC6 (Homo sapiens, UniProt Q9UBN7)                  T
2  C[C@@H]1CN(Cc2ccc(C(=O)NO)cc2F)C[C@H](C)N1Cc1ccccc1  human recombinant HDAC6 (Homo sapiens, UniProt Q9UBN7)                  T
3  C[C@@H]1CN(C(=O)c2cccc(Cl)c2)C[C@H](C)N1Cc1ccc(C(=O)NO)cc1  human recombinant HDAC6 (Homo sapiens, UniProt Q9UBN7)                  T

Decide: HDAC6 selectivity (fold) of CCN1CCN(Cc2cccc(CN3[C@H](C)CN(Cc4ccc(C(=O)NO)cc4)C[C@@H]3C)c2)CC1 >= 50 fold?
F

Decide: HDAC6 selectivity (fold) of C[C@@H]1CN(Cc2ccc(C(=O)NO)cc2)C[C@H](C)N1C(=O)Cc1cccc(F)c1 >= 50 fold?
F

Decide: HDAC6 selectivity (fold) of C[C@@H]1CN(Cc2ccc(C(=O)NO)cc2)C[C@H](C)N1C(=O)c1ccccc1C1=CCOCC1 >= 50 fold?
T

* * *

Biological target: human recombinant HDAC6 (Homo sapiens, UniProt Q9UBN7)
Construct: purchased Calbiochem 382180
Sequence (Q9UBN7 1-1215): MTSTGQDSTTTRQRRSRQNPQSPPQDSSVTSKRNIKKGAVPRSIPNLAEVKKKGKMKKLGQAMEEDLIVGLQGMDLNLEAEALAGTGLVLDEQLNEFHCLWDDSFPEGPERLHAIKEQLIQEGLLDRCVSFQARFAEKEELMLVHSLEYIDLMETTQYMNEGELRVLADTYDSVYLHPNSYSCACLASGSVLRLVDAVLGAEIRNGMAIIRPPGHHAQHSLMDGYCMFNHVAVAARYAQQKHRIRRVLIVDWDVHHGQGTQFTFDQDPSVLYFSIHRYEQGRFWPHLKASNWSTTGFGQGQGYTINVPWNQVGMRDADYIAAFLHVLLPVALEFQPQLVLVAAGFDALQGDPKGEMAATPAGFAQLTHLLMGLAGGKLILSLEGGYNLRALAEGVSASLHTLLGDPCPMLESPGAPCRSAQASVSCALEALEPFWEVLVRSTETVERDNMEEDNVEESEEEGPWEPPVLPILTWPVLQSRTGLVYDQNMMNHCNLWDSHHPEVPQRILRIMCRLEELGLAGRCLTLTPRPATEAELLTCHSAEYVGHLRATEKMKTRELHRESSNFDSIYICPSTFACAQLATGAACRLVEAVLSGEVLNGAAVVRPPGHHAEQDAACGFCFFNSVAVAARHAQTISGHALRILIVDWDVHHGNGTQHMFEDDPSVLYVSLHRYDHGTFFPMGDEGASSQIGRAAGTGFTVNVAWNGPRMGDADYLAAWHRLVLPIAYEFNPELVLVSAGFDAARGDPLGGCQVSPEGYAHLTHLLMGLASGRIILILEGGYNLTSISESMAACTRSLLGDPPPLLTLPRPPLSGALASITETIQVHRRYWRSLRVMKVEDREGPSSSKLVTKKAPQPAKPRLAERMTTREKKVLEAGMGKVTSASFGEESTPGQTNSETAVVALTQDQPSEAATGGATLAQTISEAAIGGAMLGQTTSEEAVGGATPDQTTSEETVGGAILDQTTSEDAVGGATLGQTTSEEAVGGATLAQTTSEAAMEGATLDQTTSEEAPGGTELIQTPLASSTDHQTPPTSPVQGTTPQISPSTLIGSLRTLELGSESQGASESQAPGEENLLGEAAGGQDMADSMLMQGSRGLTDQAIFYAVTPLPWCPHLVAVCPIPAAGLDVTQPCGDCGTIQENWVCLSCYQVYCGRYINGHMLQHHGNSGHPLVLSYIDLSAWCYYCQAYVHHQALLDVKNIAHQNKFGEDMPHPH
Assay: HDAC6 enzyme activity inhibition assay (in vitro, fluorimetric)
Type: biochemical
Conditions: HDAC6 selectivity over HDAC1
Experimental: In order to examine the HDAC6 selectivity of the compounds of formula 1 of the present invention by HDAC1 and HDAC6 enzymatic activity inhibition assays, an experiment was performed using a conventional substance as a control. HDAC enzyme activity was measured using a HDAC Fluorimetric Drug Discovery Kit (BML-AK511, 516, Enzo Life Science). […] Based on the resulting values, each IC50 value was calculated using GraphPad Prism4.0 program.
parameter: HDAC6 selectivity (fold)
Enter your answer as a number in fold; do not include the unit.

For orientation, consider the following solved cases.
> print(dat)
                                   compound                           subject.of.test                 parameter  recorded.measurement
1  Cc1cccc(NC(=S)N2C[C@@H](C)N(Cc3ccc(C(=O)NO)cc3)[C@@H](C)C2)c1 [Compound 189]  human recombinant HDAC6 (Homo sapiens, UniProt Q9UBN7)  HDAC6 selectivity (fold)                    10
2  C[C@@H]1CN(C(=O)c2ccccc2C2=CCOCC2)C[C@H](C)N1Cc1ccc(C(=O)NO)cc1 [Compound 278]  human recombinant HDAC6 (Homo sapiens, UniProt Q9UBN7)  HDAC6 selectivity (fold)                    16
3  C[C@@H]1CN(Cc2ccc(/C=C/C(=O)NO)cc2)C[C@H](C)N1Cc1ccccc1 [Compound 172]  human recombinant HDAC6 (Homo sapiens, UniProt Q9UBN7)  HDAC6 selectivity (fold)                    35
4  C[C@@H]1CN(Cc2ccccc2-c2cccnc2)C[C@H](C)N1Cc1ccc(C(=O)NO)cc1 [Compound 349]  human recombinant HDAC6 (Homo sapiens, UniProt Q9UBN7)  HDAC6 selectivity (fold)                  1000
5  C[C@@H]1CN(Cc2ccc(C(=O)NO)cc2)C[C@H](C)N1Cc1ccccc1-c1ccncc1 [Compound 329]  human recombinant HDAC6 (Homo sapiens, UniProt Q9UBN7)  HDAC6 selectivity (fold)                   280
6  CC(C)NC(=O)N1C[C@@H](C)N(Cc2ccc(C(=O)NO)cc2)[C@@H](C)C1 [Compound 103]  human recombinant HDAC6 (Homo sapiens, UniProt Q9UBN7)  HDAC6 selectivity (fold)                    15

With those in mind, consider the next compound.
Tested on human recombinant HDAC6 (Homo sapiens, UniProt Q9UBN7): COc1ccc(C(=O)N2[C@H](C)CN(Cc3ccc(C(=O)NO)cc3)C[C@@H]2C)cc1 [Compound 291] . Observed HDAC6 selectivity (fold): 24
